Dose at which immunostimulating effect in vivo is displayed values, listed per item
# Test system: antibody-forming cells (AFC) in the spleen
# test.description: Influence of AFP/compound complexes and their components on humoral immune response (AFC in spleen)
# Format: in vivo, C57B1/6 mice
# cond: compound in a complex with AFP
Only the number, expressed in μg/mouse, is required.

Answered cases to consult:
CC/C=C\C/C=C\C/C=C\C/C=C\C/C=C\C/C=C\CCC(=O)N[C@@H](COP(=O)(O)O)C(=O)O [Compound 10, N-docosahexaenoyl-o-phospho-L-serine]: 91
CC/C=C\C/C=C\C/C=C\C/C=C\C/C=C\CCCC(=O)N[C@H](C(=O)O)[C@@H](C)OP(=O)(O)O [Compound 15, N-eicosapentaenoyl-o-phospho-L-threonine]: 91
CCCCC/C=C\C/C=C\C/C=C\C/C=C\CCCC(=O)N[C@H](C(=O)O)[C@@H](C)OP(=O)(O)O [Compound 7, N-arachidonoyl-o-phospho-L-threonine]: 91
CC1=C(/C=C/C(C)=C/C=C/C(C)=C/C(=O)NCCOP(=O)(O)O)C(C)(C)CCC1 [Compound 1]: 45.5
CC/C=C\C/C=C\C/C=C\C/C=C\C/C=C\CCCC(=O)N[C@@H](COP(=O)(O)O)C(=O)O [Compound 14, N-eicosapentaenoyl-o-phospho-L-serine]: 91

Documented Dose at which immunostimulating effect in vivo is displayed of CC1=C(/C=C/C(C)=C/C=C/C(C)=C/C(=O)N[C@H](C(=O)O)[C@@H](C)OP(=O)(O)O)C(C)(C)CCC1 (relative stereo) [Compound 3] : 45.5

Documented Dose at which immunostimulating effect in vivo is displayed of CC1=C(/C=C/C(C)=C/C=C/C(C)=C\C(=O)N[C@@H](COP(=O)(O)O)C(=O)O)C(C)(C)CCC1 (stereo in doubt) [Compound 2a, N-(13-cis-retinoyl)-o-phospho-L-serine] : 45.5

* * *

# System: antibody-forming cells (AFC) in the spleen
# test.description: Humoral immune response: counting antibody-forming cells (AFC) in the spleen according to Cunningham, mice immunised with sheep erythrocytes
# Type: in vivo, C57B1/6 mice
# cond: 45.5 μg/mouse i.v., 5-th day after injection, female mice
Amount of antibody-forming cells per 10^6 spleen cells, M ± SEM (relative amount of AFC) values, listed per item
Just the number, please.

Answered cases to consult:
CC/C=C\C/C=C\C/C=C\CCCCCCCC(=O)N[C@@H](Cc1ccc(OP(=O)(O)O)cc1)C(=O)O [Compound 20, N-linolenoyl-o-phospho-L-tyrosine]: 512.8
CC1=C(/C=C/C(C)=C/C=C/C(C)=C/C(=O)N[C@@H](Cc2ccc(OP(=O)(O)O)cc2)C(=O)O)C(C)(C)CCC1 (stereo in doubt) [Compound 4]: 405.0
CC/C=C\C/C=C\C/C=C\C/C=C\C/C=C\C/C=C\CCC(=O)N[C@@H](Cc1ccc(OP(=O)(O)O)cc1)C(=O)O [Compound 12, N-docosahexaenoyl-o-phospho-L-tyrosine]: 263.8

Documented Amount of antibody-forming cells per 10^6 spleen cells, M ± SEM (relative amount of AFC) of CC/C=C\C/C=C\C/C=C\CCCCCCCC(=O)NCCOP(=O)(O)O [Compound 17, N-linolenoyl-o-phospho-2-aminoethanol] : 457.3

* * *

# System: antibody-forming cells (AFC) in the spleen
# test.description: Humoral immune response: counting antibody-forming cells (AFC) in the spleen according to Cunningham, mice immunised with sheep erythrocytes
# Assay type: in vivo, C57B1/6 mice
# cond: 91 μg/mouse i.v., 5-th day after injection, female mice
parameter.measured: Amount of antibody-forming cells per spleen, M ± SEM (total AFC amount)

CC/C=C\C/C=C\C/C=C\CCCCCCCC(=O)NCCOP(=O)(O)O: 63.5±5.1 × 10^3

The reported antibody-forming cells (AFC) in the spleen Amount of antibody-forming cells per spleen, M ± SEM (total AFC amount) of CC1=C(/C=C/C(C)=C/C=C/C(C)=C/C(=O)N[C@@H](Cc2ccc(OP(=O)(O)O)cc2)C(=O)O)C(C)(C)CCC1 (stereo in doubt) is 87.6±4.3 × 10^3

The reported antibody-forming cells (AFC) in the spleen Amount of antibody-forming cells per spleen, M ± SEM (total AFC amount) of CC/C=C\C/C=C\C/C=C\C/C=C\C/C=C\C/C=C\CCC(=O)N[C@@H](Cc1ccc(OP(=O)(O)O)cc1)C(=O)O is 40.2±2.7 × 10^3

The reported antibody-forming cells (AFC) in the spleen Amount of antibody-forming cells per spleen, M ± SEM (total AFC amount) of CC/C=C\C/C=C\C/C=C\CCCCCCCC(=O)N[C@@H](Cc1ccc(OP(=O)(O)O)cc1)C(=O)O is 55.7±5.6 × 10^3

* * *

# Test system: antibody-forming cells (AFC) in the spleen
# test.description: Influence of compound on humoral immune response to sheep erythrocytes, C57B1/6 female mice (AFC in spleen, hemagglutinins)
# Assay type: in vivo
# cond: 136.5 μg/mouse, i.v., 5th day, M ± SEM
parameter.measured: Amount of antibody-forming cells per 10^6 spleen cells

CC1=C(/C=C/C(C)=C/C=C/C(C)=C/C(=O)N[C@@H](Cc2ccc(OP(=O)(O)O)cc2)C(=O)O)C(C)(C)CCC1 (stereo in doubt): 1354.3±99.9 cells per 10^6 spleen cells
CC1=C(/C=C/C(C)=C/C=C/C(C)=C/C(=O)N[C@H](C(=O)O)[C@@H](C)OP(=O)(O)O)C(C)(C)CCC1 (relative stereo): 961.3±56.5 cells per 10^6 spleen cells
CC/C=C\C/C=C\C/C=C\CCCCCCCC(=O)N[C@@H](Cc1ccc(OP(=O)(O)O)cc1)C(=O)O: 845.1±43.1 cells per 10^6 spleen cells
CC1=C(/C=C/C(C)=C/C=C/C(C)=C\C(=O)NCCOP(=O)(O)O)C(C)(C)CCC1: 1176.9±58.5 cells per 10^6 spleen cells
CC/C=C\C/C=C\C/C=C\C/C=C\C/C=C\C/C=C\CCC(=O)N[C@H](C(=O)O)[C@@H](C)OP(=O)(O)O: 1336.5±59.0 cells per 10^6 spleen cells

Documented Amount of antibody-forming cells per 10^6 spleen cells of CC/C=C\C/C=C\C/C=C\C/C=C\C/C=C\C/C=C\CCC(=O)N[C@@H](Cc1ccc(OP(=O)(O)O)cc1)C(=O)O : 682.6±33.3 cells per 10^6 spleen cells

Documented Amount of antibody-forming cells per 10^6 spleen cells of CC/C=C\C/C=C\C/C=C\C/C=C\C/C=C\CCCC(=O)N[C@@H](COP(=O)(O)O)C(=O)O : 946.1±41.9 cells per 10^6 spleen cells

Documented Amount of antibody-forming cells per 10^6 spleen cells of CC1=C(/C=C/C(C)=C/C=C/C(C)=C\C(=O)N[C@@H](COP(=O)(O)O)C(=O)O)C(C)(C)CCC1 (stereo in doubt) [Compound 2a, N-(13-cis-Retinoyl)-O-phospho-L-serine] : 639.8±54.6 cells per 10^6 spleen cells

Documented Amount of antibody-forming cells per 10^6 spleen cells of CC/C=C\C/C=C\C/C=C\CCCCCCCC(=O)N[C@H](C(=O)O)[C@@H](C)OP(=O)(O)O : 612.5±47.3 cells per 10^6 spleen cells

Documented Amount of antibody-forming cells per 10^6 spleen cells of CC/C=C\C/C=C\C/C=C\CCCCCCCC(=O)NCCOP(=O)(O)O : 619.6±38.9 cells per 10^6 spleen cells

Documented Amount of antibody-forming cells per 10^6 spleen cells of CC/C=C\C/C=C\C/C=C\C/C=C\C/C=C\C/C=C\CCC(=O)N[C@@H](COP(=O)(O)O)C(=O)O : 651.6±48.2 cells per 10^6 spleen cells

Documented Amount of antibody-forming cells per 10^6 spleen cells of CC/C=C\C/C=C\C/C=C\C/C=C\C/C=C\CCCC(=O)NCCOP(=O)(O)O : 885.9±65.8 cells per 10^6 spleen cells

* * *

Effect on hemagglutinin titers values, listed per item
# System: antibody-forming cells (AFC) in the spleen
# test.description: Influence of compound on humoral immune response to sheep erythrocytes, C57B1/6 female mice (AFC in spleen, hemagglutinins)
# Assay type: in vivo
# cond: 91 μg/mouse, i.v., vs control

Answered cases to consult:
CC/C=C\C/C=C\C/C=C\CCCCCCCC(=O)NCCOP(=O)(O)O [Compound 17]: +2.6 p > 0.05%
CC/C=C\C/C=C\C/C=C\CCCCCCCC(=O)N[C@H](C(=O)O)[C@@H](C)OP(=O)(O)O [Compound 19]: +3.8 p > 0.05%

Documented Effect on hemagglutinin titers of CC/C=C\C/C=C\C/C=C\C/C=C\C/C=C\C/C=C\CCC(=O)N[C@@H](Cc1ccc(OP(=O)(O)O)cc1)C(=O)O [Compound 12] : +2.8 p > 0.05%

Documented Effect on hemagglutinin titers of CC/C=C\C/C=C\C/C=C\C/C=C\C/C=C\CCCC(=O)N[C@@H](COP(=O)(O)O)C(=O)O [Compound 14] : −2,8 p > 0.05%

Documented Effect on hemagglutinin titers of CC/C=C\C/C=C\C/C=C\C/C=C\C/C=C\CCCC(=O)NCCOP(=O)(O)O [Compound 13] : +5,6 p > 0.05%

Documented Effect on hemagglutinin titers of CC1=C(/C=C/C(C)=C/C=C/C(C)=C\C(=O)N[C@@H](COP(=O)(O)O)C(=O)O)C(C)(C)CCC1 (stereo in doubt) [Compound 2a, N-(13-cis-Retinoyl)-O-phospho-L-serine] : −3.8 p > 0.05%

Documented Effect on hemagglutinin titers of CC/C=C\C/C=C\C/C=C\C/C=C\C/C=C\C/C=C\CCC(=O)N[C@H](C(=O)O)[C@@H](C)OP(=O)(O)O [Compound 11] : −3.6 p > 0.05%

Documented Effect on hemagglutinin titers of CC/C=C\C/C=C\C/C=C\CCCCCCCC(=O)N[C@@H](Cc1ccc(OP(=O)(O)O)cc1)C(=O)O [Compound 20] : +1.4 p > 0.05%

Documented Effect on hemagglutinin titers of CC1=C(/C=C/C(C)=C/C=C/C(C)=C/C(=O)N[C@@H](Cc2ccc(OP(=O)(O)O)cc2)C(=O)O)C(C)(C)CCC1 (stereo in doubt) [Compound 4] : +4.8 p > 0.05%

Documented Effect on hemagglutinin titers of CC/C=C\C/C=C\C/C=C\C/C=C\C/C=C\C/C=C\CCC(=O)N[C@@H](COP(=O)(O)O)C(=O)O [Compound 10] : +11.4 p > 005%

Documented Effect on hemagglutinin titers of CC1=C(/C=C/C(C)=C/C=C/C(C)=C\C(=O)NCCOP(=O)(O)O)C(C)(C)CCC1 [Compound 1a] : −1,3 p > 0.05%
